# EXPERIMENTAL_SYSTEM: T1, human G-protein-coupled receptor family C group 5 member D (GPRC5D) (human, UniProt Q9NZD1 1-345)
# T1 construct: whole, on cells; also called human GPRC5D protein
# T1 sequence (Q9NZD1 whole entry): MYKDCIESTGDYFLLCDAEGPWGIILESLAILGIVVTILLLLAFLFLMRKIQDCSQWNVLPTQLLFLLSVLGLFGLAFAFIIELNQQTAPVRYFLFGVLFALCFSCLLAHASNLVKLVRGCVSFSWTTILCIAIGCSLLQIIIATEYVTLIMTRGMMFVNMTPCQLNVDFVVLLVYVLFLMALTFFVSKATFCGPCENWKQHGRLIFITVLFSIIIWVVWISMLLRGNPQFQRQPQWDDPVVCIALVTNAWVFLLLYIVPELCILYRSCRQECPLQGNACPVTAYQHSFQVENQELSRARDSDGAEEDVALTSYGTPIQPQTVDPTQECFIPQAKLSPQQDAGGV
# ASSAY_INFO: FACS, CHO-K1/human GPRC5D
Rule: Bottom of 200 or more gives rule met; anything lower gives rule not met.

Solved entries (count: 9):
6-H4L3 (antibody, V domains shown, humanized 6G10D9, VH v4 x VL v3) VH: QVQLVQSGAEVAKPGASVKMSCKASGYTFTTYTMHWVKQAPGQGLEWLGYINPSSGYTNYNQKFKDRVTLTADTSTSTVYMELSSLRSEDTAVYYCASLRSRGYFDYWGQGTLLTVSS VL: DIQMTQSPSFLSTSVGDRVTITCKASQNVGTAVVWYQQKPGKSPKLLIYSASNRYTGVPSRFSGSGSGTEFTLTISSMQPEDFATFFCQQYSSYPYTFGQGTKLEIK ... rule not met
58F9G10-XI (antibody, V domains shown, also called 58F9G10 (chimeric); 58-XI) VH: EVQLQQSGPELVKTGASVKISCKASGYSFTGYYIHWVKQSHGKSLEWIGYISCYNGATSFNQKFKGKATFTVDTSSSTAYMQFNSLTSEDSAVYYCARTELRGPWFAYWGQGTLVTVSA VL: QTVLTQSPAIMSASPGEKVTMTCSASSSVSYMNWYQQKSGTSPKRWIYDTSKLASGVPARFSGSGSGTSYSLTISSMEAEDAATYYCQQWSNNPLTFGAGTKLELK ... rule not met
37B9C4-XI (antibody, V domains shown, also called 37B9C4 (chimeric); 37-XI) VH: EVNLEESGGGLVQPGGSMKLSCVASGFTFSDYWMNWVRQSPEKGLEWVAEIRLKSNNYATHYAESVKGRFTISRDDSKSSVYLQMNNLRAEDTGIYYCTRPLLWFRRYYAMDYWGQGTSVTVSS VL: DIQMTQTTSSLSASLGDRITISCSASQGISNYLNWYQQKPDGTVKLLIYYTSSLHSGVPSRFSGSGSGTDYSLTISNLEPADIATYYCQQYSKLPFTFGSGTKLEIK ... rule met
37-H1L1 (antibody, V domains shown, humanized 37B9C4, VH v1 x VL v1; also called 37B9C4 (H1L1)) VH: EVQLVESGGGLVQPGGSLRLSCAASGFTFSDYWMNWVRQAPGKGLEWVAEIRLKSNNYATHYAESVKGRFTISRDNAKNSLYLQMNSLRAEDTAVYYCARPLLWFRRYYAMDYWGQGTLVTVSS VL: DIQMTQSPSSLSASVGDRVTITCSASQGISNYLNWYQQKPGKAPKLLIYYTSSLHSGVPSRFSGSGSGTDFTLTISSLQPEDFATYYCQQYSKLPFTFGQGTKLEIK ... rule met
6G10D9-XI (antibody, V domains shown, also called 6G10D9 (chimeric); 6G1009-X1) VH: QVQLQQSGAELARPGASVKMSCKASGYTFTTYTMHWVKQRPGQGLEWLGYINPSSGYTNYNQKFKDKATLTAGKSSSTAYMQLSSLTSEDSAVYYCASLRSRGYFDYWGQGTTLTVSS VL: DIVMTQSQTFMSTSVGDRVRITCKASQNVGTAVVWYQQKTGQSPRLLIYSASNRYTGVPDRFTGSGSGTDFTLTISNMQSEDLADFFCQQYSSYPYTFGGGTKLEIK ... rule met
34-H1L1 (antibody, V domains shown, humanized 34D3H1, VH v1 x VL v1) VH: EVQLVESGGGLVKPGGSLRLSCAASGFTFSSYGMSWVRQAPGKGLEWVSTISSGGSYTYYPDSVKGRFTISRDNAKNSLYLQMNSLRAEDTAVYYCARQGGDAMDYWGQGTLVTVSS VL: DIQMTQSPSSLSASVGDRVTITCRASQSINNNLHWYQQKPGKAPKLLIYYASQSISGVPSRFSGSGSGTDFTLTISSLQPEDFATYYCQQSNSRLTFGGGTKVEIK ... rule not met
58-H3L1 (antibody, V domains shown, humanized 58F9G10, VH v3 x VL v1) VH: QVQLVQSGAEVKKPGASVKVSCKASGYSFTGYYIHWVKQAPGQGLEWIGYISSYNAATSFNQKFKGRVTFTVDTSTSTVYMEFSSLRSEDTAVYYCARTELRGPWFAYWGQGTLVTVSS VL: DIQMTQSPSSLSASVGDRVTITCSASSSVSYMNWYQQKPGKAPKLLIYDTSKLASGVPSRFSGSGSGTDFTLTISSLQPEDFATYYCQQWSNNPLTFGQGTKLEIK ... rule not met
34-XI (antibody, V domains shown, also called 34D3H1 (chimeric)) VH: EVHLVESGGDLVKPGGSLKLSCAASGFTFSSYGMSWVRQTPDKRLEWVATISSGGSYTYYPDSVKGRFTISRDNAKNTLNLQMSSLKSEDTAMYYCARQGGDAMDYWGQGTSVTVSS VL: DIVLTQSPATLSVTPGDSVSLSCRASQSINNNLHWYQQKSHESPRLLIKYASQSISGIPSRFSGSGSGTDFTLSINSVETEDFGMYFCQQSNSRLTFGAGTKLELK ... rule met
58-H1L1 (antibody, V domains shown, humanized 58F9G10, VH v1 x VL v1) VH: QVQLVQSGAEVKKPGASVKVSCKASGYSFTGYYIHWVRQAPGQGLEWMGYISSYNAATSFNQKFKGRVTMTRDTSTSTVYMELSSLRSEDTAVYYCARTELRGPWFAYWGQGTLVTVSS VL: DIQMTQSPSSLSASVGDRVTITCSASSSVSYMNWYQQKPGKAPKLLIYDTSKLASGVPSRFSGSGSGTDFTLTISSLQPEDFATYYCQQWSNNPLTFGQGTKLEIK ... rule met

Please turn your attention to the following entry.
Q: Given 6-H3L3 (antibody, V domains shown, humanized 6G10D9, VH v3 x VL v3) VH: QVQLVQSGAEVAKPGASVKVSCKASGYTFTTYTMHWVKQAPGQGLEWLGYINPSSGYTNYNQKFKDRVTMTADTSTSTVYMELSSLRSEDTAVYYCASLRSRGYFDYWGQGTLVTVSS VL: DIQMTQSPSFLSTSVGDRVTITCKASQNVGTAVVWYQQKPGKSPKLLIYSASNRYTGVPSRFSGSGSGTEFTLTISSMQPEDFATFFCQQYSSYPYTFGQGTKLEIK , state whether its Bottom is at least 200.
Ans: rule not met
